# measured_on: HPK1 (Homo sapiens, UniProt Q92918)
# Construct: purchased SignalChem M23-11G
# Sequence (Q92918 1-346 limits assumed): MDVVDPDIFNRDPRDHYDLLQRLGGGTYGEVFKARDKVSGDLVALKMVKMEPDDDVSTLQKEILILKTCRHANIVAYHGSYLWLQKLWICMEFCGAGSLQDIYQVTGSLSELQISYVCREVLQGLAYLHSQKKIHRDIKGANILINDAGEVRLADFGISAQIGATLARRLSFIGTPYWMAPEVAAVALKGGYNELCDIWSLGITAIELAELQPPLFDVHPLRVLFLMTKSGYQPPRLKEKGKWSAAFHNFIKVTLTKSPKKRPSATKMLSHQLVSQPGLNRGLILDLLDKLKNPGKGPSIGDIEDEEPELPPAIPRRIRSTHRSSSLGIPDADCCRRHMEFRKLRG
# experiment_summary: HPK1 Inhibition Assay (kinase reaction, Caliper capillary electrophoresis)
# Format: biochemical
# applied_conditions: ratio of the IRAK4 IC50 value to the HPK1 IC50 value
assay_endpoint: IRAK4/HPK1 Ratio

INSERT INTO measurements (structure_string, result) VALUES
  ('CC1(C)OC(=O)c2ccc(Nc3ncc(C(=O)NCC4CC(F)(F)C4)c(N[C@H](CO)c4ccccc4)n3)cc21', 'B (B=10 to 50)'),
  ('CC(C)(O)c1ccccc1CNc1nc(Nc2ccc3c(c2)C(C)(C)OC3=O)ncc1-c1nc(C2CC2)no1', 'B (B=10 to 50)'),
  ('Cc1ccccc1CNC(=O)c1cnc(Nc2ccc3c(c2)C(C)(C)OC3=O)nc1N[C@H](CO)c1ccccc1', 'B (B=10 to 50)'),
  ('CC1(C)OC(=O)c2ccc(Nc3ncc(-c4nnc(C5(OC(=O)N6CC(F)(F)C6)CC5)o4)c(N[C@H](CO)c4ccccc4)n3)cc21', 'B (B=10 to 50)'),
  ('CC1(C)OC(=O)c2ccc(Nc3ncc(C(=O)NNC(=O)c4cnccn4)c(N[C@H](CO)c4ccccc4)n3)cc21', 'B (B=10 to 50)');

Consider now this further compound.
QUERY: GET IRAK4/HPK1 Ratio where system = HPK1 (Homo sapiens, UniProt Q92918) and item = `CC(C)(O)C(=O)NNC(=O)c1cnc(Nc2ccc3c(c2)C(C)(C)OC3=O)nc1N[C@H](CO)c1ccccc1`
RESULT: B (B=10 to 50)
